Protocol Text: ATG_TCF_b_cat_CIS: Attagene CIS-FACTORIAL HepG2 Assay for human T-Cell-Factor with beta-catenin (TCF/b-cat) (AID 2282965)
Study Conditions: HepG2 TCF/beta-catenin cis-reporter transcription, actives raise or lower the signal
Calls of active or inactive are those of the source. Rule for the calls: active = hit-call score of the fitted dose curve at least 0.9, where 1 is the maximum; inactive = score below 0.9.
Choose one outcome from this list and give only that: active, inactive

Compound: COCCOC[C@H](CC1(C(=O)NC2CCC(C(=O)O)CC2)CCCC1)C(=O)Oc1ccc2c(c1)CCC2 (stereo partly specified)
Answer Label: inactive
--
Compound: Cc1ccc(C)c(C)c1
Answer Label: inactive
--
Compound: Nc1ccc2c(c1)C(=O)c1ccccc1C2=O
Answer Label: inactive
--
Compound: Clc1cc(Cl)c(Cl)cc1Cl
Answer Label: inactive

Input line: Outcome? `CC(=O)OC/C=C(\C)CCC=C(C)C`
Output line: inactive

Input line: Outcome? `Cc1c(C(=O)O)c(O)cc2c1C(=O)c1c(O)c([C@@H]3O[C@H](CO)[C@@H](O)[C@H](O)[C@H]3O)c(O)c(O)c1C2=O`
Output line: inactive

---

Read-out: NAD(P)H dehydrogenase [quinone] 1 (NQO1), NQO1 (gene 1728)
Protocol Text: LTEA_HepaRG_NQO1: Life Technologies and Expression Analysis (LTEA) Assay for NAD(P)H dehydrogenase [quinone] 1 (NQO1) using HepaRG (AID 2283526)
Study Conditions: mRNA level, 48 h; actives raise or lower the signal
Activity calls are given as the source filed them. Rule for the calls: active = hit-call score of the fitted dose curve at least 0.9, where 1 is the maximum; inactive = score below 0.9.
Readout Kind: AC50

Previously resolved entries follow.
Molecule: CC=Cc1ccc(O)c(OC)c1
Readout Kind: AC50
Reported Measurement: inactive
--
Molecule: CC(CO)OC(C)CO (stereo unspecified) (tested in a mixture with another compound)
Readout Kind: AC50
Reported Measurement: inactive
--
Molecule: COc1cc(-c2nc(NC(=O)c3cc4cc(C)cc(C)c4n3CC(=O)O)sc2CCC2CCCCC2)c(OC)cc1Cl
Readout Kind: AC50
Reported Measurement: 3.35 µM (active)
--
Molecule: CCCCCCC(=O)OCC
Readout Kind: AC50
Reported Measurement: inactive
--
Molecule: C[Si]1(C)O[Si](C)(C)O[Si](C)(C)O[Si](C)(C)O1
Readout Kind: AC50
Reported Measurement: inactive

// below: AC50 requested for another molecule
Input line: For the molecule `NCCO` , give its reported AC50.
Output line: inactive

---

Protocol Text: BSK_hDFCGF_Proliferation: Cell Proliferation Assessment in the BioMAP Diversity Plus: hDFCGF Assay (AID 2283059);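 note: curves fitted for both rise and fall of signal versus DMSO baseline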
Study Conditions: primary human foreskin fibroblasts
Active and inactive are the calls of the source. Rule for the calls: active = hit-call score of the fitted dose curve at least 0.9, where 1 is the maximum; inactive = score below 0.9.
Choose one outcome from this list and give only that: active, inactive

Compound: CC(C)(C)c1cc(O)c(C(C)(C)C)cc1O
Answer Label: active

Please look at the following compound next.
Input line: Outcome? `COc1cc(S(=O)(=O)O)c(C)cc1N=Nc1c(O)ccc2cc(S(=O)(=O)O)ccc12`
Output line: inactive

---

Read-out: CYP2E1 (gene 1571)
Protocol Text: LTEA_HepaRG_CYP2E1: Life Technologies and Expression Analysis (LTEA) Assay for CYP2E1 using HepaRG (AID 2283485)
Study Conditions: mRNA level, 48 h; actives raise or lower the signal
Calls of active or inactive are those of the source. The calls were made as follows: active = hit-call score of the fitted dose curve at least 0.9, where 1 is the maximum; inactive = score below 0.9.
Choose one outcome from this list and give only that: true = active, false = inactive

Compound: CC(C)c1ccc(C(=O)N=C(N)N)cc1S(C)(=O)=O
Answer Label: false

Compound: O=c1c(O)c(-c2ccc(O)c(O)c2)oc2cc(O)cc(O)c12
Answer Label: false

Compound: CCCCCCCCCCCC(=O)OC
Answer Label: false

Compound: CN1CCN(Cc2cc(-c3ccc4[nH]c(=O)oc4c3)co2)[C@@H](c2ccc(F)cc2)C1
Answer Label: true

Compound: Cc1ccc2ncccc2c1
Answer Label: false

Compound: CCCCOC(=O)CCCCCCCCC(=O)OCCCC
Answer Label: false

Compound: O=C(O)CCCCC(=O)O
Answer Label: false

Compound: Clc1cc(Cl)c(Cl)cc1Cl
Answer Label: false

Input line: Outcome? `O=C(OCCCCCOC(=O)c1ccccc1)c1ccccc1`
Output line: false

Input line: Outcome? `Cc1ccc(C)c(O)c1C`
Output line: false

Input line: Outcome? `COc1cc(S(=O)(=O)O)c(C)cc1N=Nc1c(O)ccc2cc(S(=O)(=O)O)ccc12`
Output line: false

Input line: Outcome? CC1(C)CC(N=C=O)CC(C)(CN=C=O)C1 (configuration not stated)
Output line: true

Input line: Outcome? `CCCc1cc(=O)[nH]c(=S)[nH]1`
Output line: false

Input line: Outcome? `Cc1cccc(C)c1O`
Output line: false

Input line: Outcome? `COc1ccc(S(=O)(=O)N2C(=O)[C@@](c3ccccc3OC)(N3C[C@H](O)C[C@H]3C(=O)N(C)C)c3cc(Cl)ccc32)c(OC)c1`
Output line: true

Input line: Outcome? `CCOC(=O)C(C)(C)Oc1ccc(Cl)cc1`
Output line: false

Input line: Outcome? `CNCc1cc(F)ccc1Oc1ccc(Cl)c(Cl)c1`
Output line: true

Input line: Outcome? `COc1ccc(C)cc1N`
Output line: false

Input line: Outcome? `C1CCC(SSC2CCCCC2)CC1`
Output line: false

Input line: Outcome? `COc1ccc2c(c1)c(CC(=O)O)c(C)n2C(=O)c1ccc(Cl)cc1`
Output line: true

Input line: Outcome? `CCCCCCCC=O`
Output line: false

Input line: Outcome? `Cc1cc(NC(=O)C(=O)O)cc(C)c1Oc1ccc(O)c2c1CCC2`
Output line: true

Input line: Outcome? `C[Si]1(C)O[Si](C)(C)O[Si](C)(C)O[Si](C)(C)O1`
Output line: false

Input line: Outcome? `Oc1ccc2c(c1)OC[C@@H](N1CCC(O)(c3ccc(F)cc3)CC1)[C@H]2O`
Output line: false

Input line: Outcome? `CCCCCCC(=O)OCC`
Output line: false

Input line: Outcome? `NS(=O)(=O)c1cc2c(cc1Cl)NCNS2(=O)=O`
Output line: false

Input line: Outcome? `Cc1ccccc1Cl`
Output line: false

---

Read-out: matrix metalloproteinase-1 (MMP1), MMP1 (gene 4312)
Protocol Text: LTEA_HepaRG_MMP1: Life Technologies and Expression Analysis (LTEA) Assay for matrix metalloproteinase-1 (MMP1) using HepaRG (AID 2283658)
Study Conditions: mRNA level, 48 h; actives raise or lower the signal
Active and inactive are the calls of the source. The calls were made as follows: active = hit-call score of the fitted dose curve at least 0.9, where 1 is the maximum; inactive = score below 0.9.
Readout Kind: outcome

Smiles Entry: C1CCC(SSC2CCCCC2)CC1
Reported Measurement: inactive
--
Smiles Entry: CCCCCCCCCCC
Reported Measurement: inactive
--
Smiles Entry: Cc1ccc(C)c(C)c1
Reported Measurement: inactive
--
Smiles Entry: Oc1ccc2ccccc2c1N=Nc1ccccc1
Reported Measurement: inactive

---

Read-out: CFLAR gene, CFLAR (gene 8837)
Protocol Text: LTEA_HepaRG_CFLAR: Life Technologies and Expression Analysis (LTEA) Assay for CFLAR gene using HepaRG (AID 2283455)
Study Conditions: mRNA level, 48 h; actives raise or lower the signal
Activity calls are given as the source filed them. Rule for the calls: active = hit-call score of the fitted dose curve at least 0.9, where 1 is the maximum; inactive = score below 0.9.
Choose one outcome from this list and give only that: t = active, f = inactive

Some solved cases for reference:
Molecule: COc1ccc(S(=O)(=O)N2C(=O)[C@@](c3ccccc3OC)(N3C[C@H](O)C[C@H]3C(=O)N(C)C)c3cc(Cl)ccc32)c(OC)c1
Answer Label: f
//
Molecule: CC(CO)OC(C)CO (stereo not given) (tested in a mixture with another compound)
Answer Label: f

Input line: Outcome? `O=C(O)CCCCC(=O)O`
Output line: f

Input line: Outcome? `Nc1ccccc1N`
Output line: t

Input line: Outcome? `Oc1ccc2c(c1)OC[C@@H](N1CCC(O)(c3ccc(F)cc3)CC1)[C@H]2O`
Output line: f

Input line: Outcome? `COCCOCCOC`
Output line: t

Input line: Outcome? `C=CCc1ccc(O)c(OC)c1`
Output line: f

Input line: Outcome? `Nc1nc(N)c2nc(CNc3ccc(C(=O)N[C@@H](CCC(=O)O)C(=O)O)cc3)cnc2n1`
Output line: f

Input line: Outcome? `CCCCCCC(=O)OCC`
Output line: f

---

Read-out: Monocyte Chemoattractant Protein-1 (MCP1), CCL2 (gene 6347)
Protocol Text: BSK_SAg_MCP1: BioMAP Diversity Plus: SAg Assay for Monocyte Chemoattractant Protein-1 (MCP1) Biomarker Activity (AID 2283090)
Study Conditions: primary human HUVEC with PBMC; actives raise or lower the signal
The source made the active and inactive calls. Rule for the calls: active = hit-call score of the fitted dose curve at least 0.9, where 1 is the maximum; inactive = score below 0.9.
Choose one outcome from this list and give only that: active, inactive

Some solved cases for reference:
Smiles Entry: CCCCCCOCCO
Answer Label: inactive
//
Smiles Entry: Cc1ccc(C(C)C)c(O)c1
Answer Label: inactive
//
Smiles Entry: Oc1ccc2c(c1)OC[C@@H](N1CCC(O)(c3ccc(F)cc3)CC1)[C@H]2O
Answer Label: inactive
//
Smiles Entry: CC(C)c1ccc(C(=O)N=C(N)N)cc1S(C)(=O)=O
Answer Label: inactive
//
Smiles Entry: COc1cc(-c2nc(NC(=O)c3cc4cc(C)cc(C)c4n3CC(=O)O)sc2CCC2CCCCC2)c(OC)cc1Cl
Answer Label: active

Please look at the following molecule next.
Input line: Outcome? `Nc1ccc(S(=O)(=O)c2ccc(N)cc2)cc1`
Output line: inactive
